Source: PubChem BioAssay AID2069

protocol: HTRF signal interference by compounds, confirmation, artefact control for SUMOylation inhibitor project, biochemical, uHTS (AID 2069)
test.settings: HTRF interference counterscreen, fluorescence, at 35 µM
Screen size: about 1,200 compounds; about 210 (18%) were called active. Rule as the data show it: active = inhibition above about 30%; inactive = the rest. These entries were drawn from the full list.
Labels: Yes for active, No for inactive

>>> class_name("CCOC(=O)Cn1c2ccc(OC)cc2c2nc3ccccc3nc21")
"Yes"
>>> class_name("COc1ccccc1NC(=O)Cn1c(O)c(N=NC(=O)c2ccccc2O)c2ccccc21")
"No"
>>> class_name("COc1ccc(Cn2c(C)c(C)c(C#N)c2NC(=O)Nc2ccc(F)cc2)cc1")
"No"
>>> class_name("CN(C)CCCn1c(N)c(C#N)c2nc3ccccc3nc21")
"Yes"
>>> class_name("COc1cccc(NC(=O)Nc2nnc(-c3ccccc3SCc3ccccc3)s2)c1")
"No"

----------
Collected inhibition values appear next to each entry.
protocol: HTRF signal interference by compounds, confirmation, artefact control for SUMOylation inhibitor project, biochemical, uHTS (AID 2069)
test.settings: HTRF interference counterscreen, fluorescence, at 35 µM, hits give high values
The whole screen tested about 1,200 compounds, of which about 210 (18%) were called active. A selection follows.
parameter.measured: inhibition

>>> measured_value("O=C(c1ccc2c(c1)[nH]c(=S)n1c3ccccc3nc21)N1CCN(c2ncccn2)CC1")
"11.9% (inactive)"
>>> measured_value("O=C(Cc1cccc2ccccc12)NN1C(=O)/C(=C\\c2cccnc2)SC1=S")
"-7.8% (inactive)"
>>> measured_value("N#CC1=C(N)N2C(=C(C#N)C1c1ccc(Br)cc1)Nc1ccccc12 (centres undefined)")
"7.05% (inactive)"
>>> measured_value("Nc1nnc(-c2cc3c(ccc4ccccc43)oc2=O)s1")
"30.1% (active)"
>>> measured_value("COc1ccc(OC)c(/C=N/NC(=O)CCc2ccc(O)c(O)c2)c1")
"17.9% (inactive)"
>>> measured_value("CCCN(C(=O)c1cc2c(s1)CCC2)c1c(N)n(Cc2ccccc2)c(=O)[nH]c1=O")
"-3.9% (inactive)"
>>> measured_value("O=c1c2ccccc2nc2n1CCC2")
"31.4% (active)"
>>> measured_value("COc1ccc(Br)cc1CNc1ccc(O)cc1")
"-15.2% (inactive)"
>>> measured_value("O=C(Nc1ccc(N2C(=O)C3C4C=CC(C4)C3C2=O)cc1)Nc1cccnc1 (centres undefined)")
"16.1% (inactive)"
>>> measured_value("O=c1[nH]c(=S)[nH]c(O)c1N=Nc1ccc(-c2ccccc2)cc1[N+](=O)[O-]")
"16.1% (inactive)"
>>> measured_value("CNc1nnc(-c2cc3ccccc3oc2=O)s1")
"23.1% (inactive)"
>>> measured_value("Cc1ccc(S(=O)(=O)N2CCCCC2)cc1NC(=O)COC(=O)c1c(F)cccc1F")
"-11.4% (inactive)"
>>> measured_value("Cc1nc2ccccc2c(=O)n1/N=C/c1ccc(O)c(O)c1O")
"7.15% (inactive)"
>>> measured_value("CC1CCN(C2=C(NS(=O)(=O)c3ccc(Br)cc3)C(=O)c3ccccc3C2=O)CC1")
"7.4% (inactive)"
